Ref: patent US20080293683A1

Parameter: RBAβ (%) (relative binding affinity for ERβ, of E2). Scope: all listed entries.
# ASSAY_SYSTEM: recombinant human ERβ (Homo sapiens, UniProt Q92731)
# Construct: purchased PanVera Corporation (Madison, Wis.); host or cells: baculovirus-mediated expression system
# Sequence (Q92731 whole entry): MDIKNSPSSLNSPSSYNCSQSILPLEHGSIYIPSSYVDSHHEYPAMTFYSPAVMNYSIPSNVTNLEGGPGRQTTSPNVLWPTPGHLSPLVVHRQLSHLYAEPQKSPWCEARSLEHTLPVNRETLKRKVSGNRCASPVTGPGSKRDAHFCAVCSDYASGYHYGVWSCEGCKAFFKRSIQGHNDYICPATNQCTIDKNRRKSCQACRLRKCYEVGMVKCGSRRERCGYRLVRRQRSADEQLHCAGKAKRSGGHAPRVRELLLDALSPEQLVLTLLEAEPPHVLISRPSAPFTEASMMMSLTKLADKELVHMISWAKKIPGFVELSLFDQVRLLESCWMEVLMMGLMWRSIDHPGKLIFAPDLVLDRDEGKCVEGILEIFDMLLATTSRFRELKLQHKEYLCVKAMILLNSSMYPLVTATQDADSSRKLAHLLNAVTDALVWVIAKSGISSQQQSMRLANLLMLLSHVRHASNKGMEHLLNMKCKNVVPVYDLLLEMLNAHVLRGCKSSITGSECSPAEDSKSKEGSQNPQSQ
# PROTOCOL_DESCRIPTION: ERβ binding assay: competition of [3H]E2 binding by competing estrogens
# MEASUREMENT_CONTEXT: calculated against E2 = 100
QUANTITY_KIND: RBAβ (%) (relative binding affinity for ERβ, of E2)

[[record]]
compound = "CC12CCC3c4ccc(O)cc4CCC3C1CC(=O)C2=O (stereo not shown) [16-Keto-E1, 16-Ketoestrone]"
assay_system = "recombinant human ERβ (Homo sapiens, UniProt Q92731)"
numeric_value = 10

[[record]]
compound = "C[C@]12CC[C@@H]3c4cc(O)c(O)cc4CC[C@H]3[C@@H]1C[C@@H](O)[C@@H]2O [2-OH-E3, 2-Hydroxyestriol]"
assay_system = "recombinant human ERβ (Homo sapiens, UniProt Q92731)"
numeric_value = 1

[[record]]
compound = "C[C@]12CC[C@@H]3c4ccc(O)c(Br)c4CC[C@H]3[C@@H]1CC[C@@H]2O [4-Br-E2, 4-Bromoestradiol]"
assay_system = "recombinant human ERβ (Homo sapiens, UniProt Q92731)"
numeric_value = 35

[[record]]
compound = "CC12CCC3c4ccc(O)cc4C(=O)CC3C1CCC2=O (stereo not shown) [6-Keto-E1, 6-Ketoestrone]"
assay_system = "recombinant human ERβ (Homo sapiens, UniProt Q92731)"
numeric_value = 1

[[record]]
compound = "CC12CCC3c4ccc(O)c(O)c4CCC3C1CCC2=O (stereo not shown) [4-OH-E1, 4-Hydroxyestrone]"
assay_system = "recombinant human ERβ (Homo sapiens, UniProt Q92731)"
numeric_value = 1

[[record]]
compound = "COc1c(O)ccc2c1CC[C@@H]1[C@@H]2CC[C@]2(C)[C@@H](O)[C@H](O)C[C@@H]12"
assay_system = "recombinant human ERβ (Homo sapiens, UniProt Q92731)"
numeric_value = 1

[[record]]
compound = "C[C@]12CC[C@@H]3c4ccc(O)cc4C(=O)C[C@H]3[C@@H]1CC[C@H]2O [6-Keto-E2-17α, 6-Ketoestradiol-17α]"
assay_system = "recombinant human ERβ (Homo sapiens, UniProt Q92731)"
numeric_value = 1

